# assayed_target: KIF5B-RET-BaF3 (Homo sapiens, UniProt P07949)
# Construct: fused on or other part: P33176 (Kinesin-1 heavy chain)
# Sequence (P07949 whole entry, change not shown, the tested form may be a part): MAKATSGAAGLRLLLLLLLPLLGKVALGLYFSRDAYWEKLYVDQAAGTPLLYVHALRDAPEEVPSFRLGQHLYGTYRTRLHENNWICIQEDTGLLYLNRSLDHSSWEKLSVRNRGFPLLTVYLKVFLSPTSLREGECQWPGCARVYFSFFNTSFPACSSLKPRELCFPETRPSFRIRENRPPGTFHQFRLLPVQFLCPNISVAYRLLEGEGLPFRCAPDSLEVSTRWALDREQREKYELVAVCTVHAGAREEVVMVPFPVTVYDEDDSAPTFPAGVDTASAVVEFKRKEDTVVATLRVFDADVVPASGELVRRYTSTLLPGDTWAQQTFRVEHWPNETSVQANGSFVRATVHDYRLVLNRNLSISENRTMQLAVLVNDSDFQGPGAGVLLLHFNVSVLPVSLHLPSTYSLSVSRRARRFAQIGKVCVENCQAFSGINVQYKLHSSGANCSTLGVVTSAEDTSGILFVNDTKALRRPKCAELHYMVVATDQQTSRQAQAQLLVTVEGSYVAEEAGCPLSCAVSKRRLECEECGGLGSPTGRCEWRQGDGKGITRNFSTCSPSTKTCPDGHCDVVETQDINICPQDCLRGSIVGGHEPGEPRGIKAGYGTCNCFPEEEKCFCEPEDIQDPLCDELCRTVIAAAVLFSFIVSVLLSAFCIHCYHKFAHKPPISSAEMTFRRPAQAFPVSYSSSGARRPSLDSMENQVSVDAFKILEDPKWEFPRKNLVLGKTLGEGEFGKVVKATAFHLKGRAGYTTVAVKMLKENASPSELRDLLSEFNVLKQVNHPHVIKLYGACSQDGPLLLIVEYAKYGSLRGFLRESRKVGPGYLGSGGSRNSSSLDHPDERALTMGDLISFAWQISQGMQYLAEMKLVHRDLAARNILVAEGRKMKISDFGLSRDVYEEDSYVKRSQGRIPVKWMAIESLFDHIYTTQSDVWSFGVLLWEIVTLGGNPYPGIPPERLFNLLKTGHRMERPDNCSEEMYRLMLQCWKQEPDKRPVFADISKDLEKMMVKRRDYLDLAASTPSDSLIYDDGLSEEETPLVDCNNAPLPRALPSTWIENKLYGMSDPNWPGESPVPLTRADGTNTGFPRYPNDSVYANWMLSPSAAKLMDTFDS
# assay_summary: Growth inhibition of KIF5B-RET-BaF3 cells stably transfected with kinase (MTS)
# Format: cell-based
# measurement_context: 48 h, read-out: KIF5B-RET (IC50/nM)
endpoint_name: log10 GI50 (log10 of the value in nM)
Please interpret these as log10 of GI50 where GI50 is in nM.

compound	endpoint_name	reported_value
CC(C)n1cnc2c(Oc3ccc(Cl)c(C(=O)Nc4ccc(CN5CCN(C)CC5)c(C(F)(F)F)c4)c3)nc(-c3ccncc3)nc21 [I-o-12]	log10 GI50	2.19
Cc1ccc(Oc2nc(-c3cccc(O)c3)nc3nn(C)cc23)cc1C(=O)Nc1ccc(CN2CCN(C)CC2)c(C(F)(F)F)c1 [IV-n-6]	log10 GI50	3.63
Cc1ccc(Oc2nc(-c3cccnc3)nc3ccn(C)c23)cc1C(=O)Nc1cc(CN2CCN(C)CC2)cc(C(F)(F)F)c1 [III-r-3]	log10 GI50	3.43
CC(=O)NCC1CCN(c2ccc(NC(=O)c3ccc(C)c(Oc4nc(-c5ccncc5)nc5c4cnn5C)c3)cc2C(F)(F)F)CC1 [II-v-11]	log10 GI50	2.81
Cc1ccc(C(=O)Nc2ccc(CN3CCN(C)CC3)c(C(F)(F)F)c2)cc1Oc1nc(N(C)C)nc2c1cnn2C [II-m-18]	log10 GI50	1.54
CN1CCN(Cc2ccc(C(=O)Nc3cccc(Oc4nc(-c5ccncc5)nc5c4cnn5C)c3)cc2C(F)(F)F)CC1 [II-h-2]	log10 GI50	2.03

Here is another compound to look at.
Problem: Given Cc1ccc(Oc2nc(-c3ccccc3)nc3c2ncn3C)cc1NC(=O)c1ccc(CN2CCN(C)CC2)c(C(F)(F)F)c1 [I-j-2] , respond with its log10 GI50.
Result: 3.20

###

# assayed_target: KIF5B-RET-BaF3 (Homo sapiens)
# Construct: fused on or other part: P33176 (Kinesin-1 heavy chain)
# assay_summary: Growth inhibition of KIF5B-RET-BaF3 cells stably transfected with kinase (MTS)
# Assay type: cell-based
# measurement_context: 48 h, read-out: KIF5B-RET (IC50/nM)
# Description: Growth inhibitory activity of compounds on cell lines stably transfected with kinase The activity of compounds against kinase RET is evaluated by their effect of inhibiting growth of cell lines stably transfected with kinase CCDC6-RET-BaF3, KIF5B-RET-BaF3, and wild-type BaF3 (Proc. Natl. Acad. Sci. USA., 2006, 103, 3153-8.). The growth of the cell lines stably transfected with kinase CCDC6-RET-BaF3, KIF5B-RET-BaF3 depends on their kinase activity. […]
endpoint_name: GI50 (nM)
All answers are understood in nM, so give the number only.

Example cases with answers are listed next.
molecule	scale_unit	GI50
Cc1ccc(C(=O)Nc2ccc(CN3CCN(C)CC3)c(C(F)(F)F)c2)cc1Oc1nc(-c2cccnc2)nc2c1cnn2C [II-m-1]	nM	8.28
Cc1ccc(C(=O)Nc2ccc(CN3CCN(C)CC3)c(C(F)(F)F)c2)cc1Oc1nc(-c2ccc(Cl)cc2)nc2cc[nH]c12 [III-m-6]	nM	3950
Cc1ccc(C(=O)Nc2ccc(CN3CCN(C)CC3)c(C(F)(F)F)c2)cc1Oc1nc(-c2ccc(O)cc2)nc2c1cnn2C [II-m-8]	nM	56.9
Cc1ccc(C(=O)Nc2ccc(CN3CCN(C)CC3)c(C(F)(F)F)c2)cc1Oc1nc(-c2cccnc2)nc2c1ncn2C [I-m-2]	nM	1300
Cc1ccc(C(=O)Nc2ccc(CN3CCN(C)CC3)c(C(F)(F)F)c2)cc1Oc1nc(N2CC(C)OC(C)C2)nc2c1cnn2C (stereo not shown) [II-m-16]	nM	84.6
Cc1ccc(C(=O)Nc2cccc(C(F)(F)F)c2)cc1Oc1nc(-c2ccncc2)nc2nn(C)cc12 [IV-e-2]	nM	8450

Problem: Given Cc1ccc(Oc2nc(-c3ccc(O)cc3)nc3ccn(C)c23)cc1NC(=O)c1ccc(CN2CCN(C)CC2)c(C(F)(F)F)c1 [III-j-14] , respond with its GI50.
Result: 1380

###

# assayed_target: KIF5B-RET-BaF3 (Homo sapiens)
# Construct: fused on or other part: P33176 (Kinesin-1 heavy chain)
# assay_summary: Growth inhibition of KIF5B-RET-BaF3 cells stably transfected with kinase (MTS)
# Format: cell-based
# measurement_context: 48 h, read-out: KIF5B-RET (IC50/nM)
# Method: Growth inhibitory activity of compounds on cell lines stably transfected with kinase The activity of compounds against kinase RET is evaluated by their effect of inhibiting growth of cell lines stably transfected with kinase CCDC6-RET-BaF3, KIF5B-RET-BaF3, and wild-type BaF3 (Proc. Natl. Acad. Sci. USA., 2006, 103, 3153-8.). The growth of the cell lines stably transfected with kinase CCDC6-RET-BaF3, KIF5B-RET-BaF3 depends on their kinase activity. […]
Decide using GI50 alone. Strictly below 2000 nM: Criterion met. Equal to or above 2000 nM: Criterion not met.

Some entries whose results are on file:
compound	assayed_target	class
CCC(=O)NCC1CCN(c2ccc(NC(=O)c3ccc(C)c(Oc4nc(-c5ccncc5)nc5[nH]ncc45)c3)cc2C(F)(F)F)CC1 [II-v-17]	KIF5B-RET-BaF3 (Homo sapiens)	Criterion met
Cc1ccc(C(=O)Nc2ccc(CN3CCN(C)CC3)c(C(F)(F)F)c2)cc1Oc1nc(-c2cccc(O)c2)nc2cc[nH]c12 [III-m-7]	KIF5B-RET-BaF3 (Homo sapiens)	Criterion not met
Cc1ccc(C(=O)Nc2ccc(CN3CCN(C)CC3)c(C(F)(F)F)c2)cc1Oc1nc(-c2ccncc2)nc2c1cnn2C [II-m-2]	KIF5B-RET-BaF3 (Homo sapiens)	Criterion met
Cc1ccc(C(=O)Nc2ccc(CN3CCN(C)CC3)c(C(F)(F)F)c2)cc1Oc1nc(Nc2cccnc2)nc2c1cnn2C [II-m-11]	KIF5B-RET-BaF3 (Homo sapiens)	Criterion met
CN1CCN(Cc2ccc(NC(=O)c3cc(Oc4nc(-c5cccnc5)nc5c4cnn5C)ccc3Cl)cc2C(F)(F)F)CC1 [II-o-1]	KIF5B-RET-BaF3 (Homo sapiens)	Criterion not met
CN1CCN(Cc2ccc(NC(=O)c3cc(Oc4nc(-c5ccncc5)nc5nn(C)cc45)ccc3Cl)cc2C(F)(F)F)CC1 [IV-o-2]	KIF5B-RET-BaF3 (Homo sapiens)	Criterion met
Cc1ccc(Oc2nc(-c3ccncc3)nc3[nH]cnc23)cc1C(=O)Nc1ccc(CN2CCN(C)CC2)c(C(F)(F)F)c1 [I-n-1]	KIF5B-RET-BaF3 (Homo sapiens)	Criterion met
CCC(=O)NCC1CCN(c2ccc(NC(=O)c3ccc(C)c(Oc4nc(-c5cccnc5)nc5cc[nH]c45)c3)cc2C(F)(F)F)CC1 [III-v-12]	KIF5B-RET-BaF3 (Homo sapiens)	Criterion met
CN1CCN(Cc2ccc(NC(=O)c3cc(Oc4nc(-c5ccc(Cl)cc5)nc5nn(C)cc45)ccc3Cl)cc2C(F)(F)F)CC1 [IV-o-5]	KIF5B-RET-BaF3 (Homo sapiens)	Criterion not met
Cc1ccc(Oc2nc(-c3ccoc3)nc3nn(C)cc23)cc1C(=O)Nc1ccc(CN2CCN(C)CC2)c(C(F)(F)F)c1 [IV-n-10]	KIF5B-RET-BaF3 (Homo sapiens)	Criterion met

Proceed to the following item.
Problem: hey, is GI50 for CN1CCN(Cc2cc(NC(=O)c3cccc(Oc4nc(-c5ccncc5)nc5c4cnn5C)c3)cc(C(F)(F)F)c2)CC1 [II-p-2] lower than 2000 nM or not?
Result: Criterion met

###

# GI50 values compiled below
# assayed_target: CCDC6-RET-BaF3 (Homo sapiens)
# Construct: fused on or other part: Q16204 (Coiled-coil domain-containing protein 6)
# Sequence (P07949 whole entry, change not shown, the tested form may be a part): as above
# assay_summary: Growth inhibition of CCDC6-RET-BaF3 cells stably transfected with kinase (MTS)
# Type: cell-based
# measurement_context: 48 h, read-out: CCDC6-RET (IC50/nM)
All answers are understood in nM, so give the number only.

Example cases with answers are listed next.
compound	endpoint_name	reported_value
CN1CCN(Cc2ccc(NC(=O)c3cc(Oc4nc(-c5ccc(Cl)cc5)nc5c4ncn5C)ccc3Cl)cc2C(F)(F)F)CC1 [I-o-5]	GI50	1320
CN1CCN(Cc2ccc(C(=O)Nc3cccc(Oc4nc(-c5ccncc5)nc5cc[nH]c45)c3)cc2C(F)(F)F)CC1 [III-h-2]	GI50	16.8

Problem: With CCDC6-RET-BaF3 (Homo sapiens) as the test system, provide measured GI50 for this compound: Cc1ccc(Oc2nc(-c3ccc(Cl)cc3)nc3c2ncn3C)cc1NC(=O)c1ccc(CN2CCN(C)CC2)c(C(F)(F)F)c1 [I-j-3]
Result: 1420

Problem: With CCDC6-RET-BaF3 (Homo sapiens) as the test system, provide measured GI50 for this compound: Cc1ccc(-c2nc(Oc3cc(C(=O)Nc4ccc(CN5CCN(C)CC5)c(C(F)(F)F)c4)ccc3C)c3c(ccn3C)n2)cc1 [III-m-12]
Result: 4020
